Target: T1, Recombinant MBP-mutCALR Type 1 fusion protein (human)
T1 construct: custom made at Cepter; also called recombinant mutCALR protein
Assay: SPR, IgG captured, 1:1 fit, Exp. 1
# key: entry, value: koff
observation.type: koff

• anti-mutCALR antibody clone 51 (antibody, human IgG1, lambda, V domains shown, human IgG1) VH: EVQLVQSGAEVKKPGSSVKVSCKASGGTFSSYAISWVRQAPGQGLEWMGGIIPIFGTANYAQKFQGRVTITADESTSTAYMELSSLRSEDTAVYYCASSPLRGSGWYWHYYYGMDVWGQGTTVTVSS VL: SYELTQPPSVSVAPGKTARITCGGNKIGTKSVHWYQQKPGQAPVLVIYQDSKRPSGIPERFSGSNSGNTATLTISGTQAMDEADYYCQAWGSSTVVFGGGTKLTVLG = 0.00109 s⁻¹
• anti-mutCALR antibody clone 21 (antibody, human IgG1, lambda, V domains shown, human IgG1) VH: EVQLVQSGAEVKKPGASVKVSCEVSGYTLTELSMQWVRQAPGKGLEWMGGFDPDDGETMYAEKFQGRLTVTEDTSTDTVYMELRSLTSEDTALYFCATSPGYDFFDYWGQGTLVTVSS VL: SYVLTQPPSVSVAPGQTARVSCGGNNIGSKSVNWYRQKPGQAPVLVIYDDSDRPSGIPERFSGSNSGNTATLTISRVEAGDEADYYCQVWDSSNDLLIFGGGTKLTVLG = 0.00664 s⁻¹
• anti-mutCALR antibody clone 53 (antibody, human IgG1, lambda, V domains shown, human IgG1) VH: QVQLVQSGAEVKKPGASVKVSCKVSGYTLTELSMHWVRQAPGKGLEWMGGFDPEDGETIYAQKFQGRVTMTEDTSTDTAYMELSSLRSEDTAVYYCATDIQGLAEFDYWGQGTLVTVSS VL: QSALTQPRSVSGSPGQSVTISCTGTNTDVGAYIDVSWYQQHPGKAPKLIIYDVSKWPSGVPDRFSGSKSGNTASLTISGLQAEDEADYYCCSYAGNHSFSFGGGTKVTVLG = 0.00235 s⁻¹
